Target: T1, cynomolgus monkey C-MET on stably transfected CHO-K1 cells (cynomolgus monkey, UniProt A0M8R7 25-1381 (Papio anubis entry))
T1 construct: also called cycMET; cyno C-MET+ CHO-K1 cells
T1 sequence (A0M8R7 25-1381 S170N/I621T limits assumed): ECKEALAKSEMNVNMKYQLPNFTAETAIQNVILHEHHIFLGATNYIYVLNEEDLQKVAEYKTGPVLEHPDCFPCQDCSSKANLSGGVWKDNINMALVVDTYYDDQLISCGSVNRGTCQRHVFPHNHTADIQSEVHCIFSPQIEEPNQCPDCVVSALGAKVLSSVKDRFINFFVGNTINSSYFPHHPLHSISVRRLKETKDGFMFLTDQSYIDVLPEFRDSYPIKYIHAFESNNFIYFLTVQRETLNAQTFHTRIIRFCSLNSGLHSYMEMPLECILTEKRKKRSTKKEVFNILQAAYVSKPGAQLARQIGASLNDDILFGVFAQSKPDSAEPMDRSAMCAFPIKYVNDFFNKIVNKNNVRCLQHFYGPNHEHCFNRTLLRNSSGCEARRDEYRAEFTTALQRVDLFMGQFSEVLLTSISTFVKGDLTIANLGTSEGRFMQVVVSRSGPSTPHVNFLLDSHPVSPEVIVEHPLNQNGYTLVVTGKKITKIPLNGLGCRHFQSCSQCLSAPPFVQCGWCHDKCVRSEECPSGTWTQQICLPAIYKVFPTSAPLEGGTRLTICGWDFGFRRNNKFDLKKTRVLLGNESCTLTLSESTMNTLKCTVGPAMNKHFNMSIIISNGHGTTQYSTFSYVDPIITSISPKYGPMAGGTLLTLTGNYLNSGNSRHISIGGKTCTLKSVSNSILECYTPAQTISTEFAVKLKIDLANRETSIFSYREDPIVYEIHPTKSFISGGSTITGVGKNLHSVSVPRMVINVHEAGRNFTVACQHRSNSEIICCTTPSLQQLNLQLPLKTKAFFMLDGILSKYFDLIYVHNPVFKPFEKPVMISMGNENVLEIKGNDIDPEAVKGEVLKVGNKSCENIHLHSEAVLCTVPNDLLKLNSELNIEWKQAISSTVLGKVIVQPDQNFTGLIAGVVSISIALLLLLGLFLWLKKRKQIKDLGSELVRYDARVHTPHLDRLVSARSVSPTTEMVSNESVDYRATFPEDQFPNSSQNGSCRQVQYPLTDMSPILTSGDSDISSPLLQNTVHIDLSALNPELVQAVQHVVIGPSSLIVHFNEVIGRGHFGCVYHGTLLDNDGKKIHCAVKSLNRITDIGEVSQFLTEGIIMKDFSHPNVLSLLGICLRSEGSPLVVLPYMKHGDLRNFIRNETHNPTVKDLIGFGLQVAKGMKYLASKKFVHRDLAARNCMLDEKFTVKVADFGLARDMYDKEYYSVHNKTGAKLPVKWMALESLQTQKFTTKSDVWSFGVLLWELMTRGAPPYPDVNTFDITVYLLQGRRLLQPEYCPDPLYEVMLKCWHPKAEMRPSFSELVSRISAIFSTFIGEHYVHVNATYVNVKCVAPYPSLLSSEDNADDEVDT
Assay: flow cytometry, C-MET CHO-K1 cells
Outcome Measure: maximum MFI, fold over Isotype IgG4 background

>  <Binder>
MH5 (antibody, IgG4, V domains shown) VH: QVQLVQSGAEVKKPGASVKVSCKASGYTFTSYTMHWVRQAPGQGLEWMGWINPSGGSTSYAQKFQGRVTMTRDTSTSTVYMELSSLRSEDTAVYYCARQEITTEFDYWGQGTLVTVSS VL: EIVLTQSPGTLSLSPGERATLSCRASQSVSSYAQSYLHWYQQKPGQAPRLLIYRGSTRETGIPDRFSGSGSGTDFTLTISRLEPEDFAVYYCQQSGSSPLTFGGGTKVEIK

>  <Result>
> 10 fold

$$$$
>  <Binder>
MH7-2 (antibody, human IgG4, V domains shown) VH: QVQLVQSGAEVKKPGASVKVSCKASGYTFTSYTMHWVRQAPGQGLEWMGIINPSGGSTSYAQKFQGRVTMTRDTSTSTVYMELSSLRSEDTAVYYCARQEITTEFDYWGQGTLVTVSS VL: EIVLTQSPGTLSLSPGERATLSCRASQSVSSYANSYLHWYQQKPGQAPRLLIYRGSTRETGIPDRFSGSGSGTDFTLTISRLEPEDFAVYYCQQSKESPLTFGGGTKVEIK

>  <Result>
> 10 fold

$$$$
>  <Binder>
09E04 (antibody, IgG4, V domains shown) VH: QVQLVQSGAEVKKPGASVKVSCKASGYIFTSYTMHWVRQAPGQGLEWMGWINPNGGSTSYAQKFQGRVTMTRDTSTSTVYMELSSLRSEDTAVYYCARQEITTEFDYWGQGTLVTVSS VL: EIVLTQSPGTLSLSPGERATLSCRASQSVESYANSYLHWYQQKPGQAPRLLIYRGSTRESGIPDRFSGSGSGTDFTLTISRLEPEDFAVYYCQQYGSEPLTFGGGTKVEIK

>  <Result>
> 10 fold

$$$$

This collection of values is drawn from patent US20260042850A1.
